test: Phase 1 study BGE-105-101 Part A (SAD) pharmacokinetics after IV infusion; format: in vivo, human; settings: Mean; SAD2 (120 mg/720 mg) Day 1; unit assumed
ATTRIBUTE_MEASURED: Dose-normalized AUCinf (µg·h/mL/mg)
Express your answer in µg·h/mL/mg, writing the number without its unit.

Query: What value of Dose-normalized AUCinf has been recorded for this entry: COc1cccc(OC)c1-n1c(NS(=O)(=O)[C@@H](C)[C@H](C)c2ncc(C)cn2)nnc1-c1cncc(C)c1
Result: 0.49

* * *

assay: Phase 1 study BGE-105-101 Part A (SAD) pharmacokinetics after IV infusion; format: in vivo, human; conditions: Mean; SAD1 (60 mg/360 mg) Day 1; unit assumed
ATTRIBUTE_MEASURED: Dose-normalized AUCinf (µg·h/mL/mg)
Express your answer in µg·h/mL/mg, writing the number without its unit.

Query: What value of Dose-normalized AUCinf has been recorded for this entry: COc1cccc(OC)c1-n1c(NS(=O)(=O)[C@@H](C)[C@H](C)c2ncc(C)cn2)nnc1-c1cncc(C)c1 [BGE-105]
Result: 0.66

* * *

experiment: Phase 1 study BGE-105-101 Part A (SAD) pharmacokinetics after IV infusion; format: in vivo, human; conditions: Mean; SAD2 (120 mg/720 mg) Day 1; unit assumed
ATTRIBUTE_MEASURED: Dose-normalized Cmax (µg/mL/mg)
Express your answer in µg/mL/mg, writing the number without its unit.

Query: What value of Dose-normalized Cmax has been recorded for this entry: COc1cccc(OC)c1-n1c(NS(=O)(=O)[C@@H](C)[C@H](C)c2ncc(C)cn2)nnc1-c1cncc(C)c1
Result: 0.11

* * *

test: Phase 1 study BGE-105-101 Part A (SAD) pharmacokinetics after IV infusion; type: in vivo, human; conditions: Mean; SAD3 (240 mg/1440 mg) Day 1; unit assumed
ATTRIBUTE_MEASURED: Dose-normalized Cmax (µg/mL/mg)
Express your answer in µg/mL/mg, writing the number without its unit.

Query: What value of Dose-normalized Cmax has been recorded for this entry: COc1cccc(OC)c1-n1c(NS(=O)(=O)[C@@H](C)[C@H](C)c2ncc(C)cn2)nnc1-c1cncc(C)c1
Result: 0.11
